System: MES-SA
Assay: relative viability vs DMSO control (72 h) (fraction); higher = more viable cells
Conditions: 0.00457 µM
Exercise: state measured relative viability for each of the compounds provided.

(Q) relative viability lookup needed for Cn1cc(-c2cc3c(N4CCN(c5ncc([C@@](C)(N)c6ccc(F)cc6)cn5)CC4)ncnn3c2)cn1 , thanks.
(A) 0.884

(Q) How about CCc1cc2c(cc1N1CCC(N3CCOCC3)CC1)C(C)(C)c1[nH]c3cc(C#N)ccc3c1C2=O ?
(A) 0.893

(Q) How about CC1(C)CNc2cc(NC(=O)c3cccnc3NCc3ccncc3)ccc21 ?
(A) 0.937

(Q) How about Cc1nc(NC(=O)N2CCC[C@H]2C(N)=O)sc1-c1ccnc(C(C)(C)C(F)(F)F)c1 ?
(A) 0.88

====

Tested on: SW1353
Assay: relative viability vs DMSO control (72 h) (fraction); higher = more viable cells
Details: 0.04115 µM
attributeMeasured: relative viability
Respond numerically, and do not add a unit to the figure.

(Q) relative viability lookup needed for C=CC(=O)Nc1cccc(Oc2nc(Nc3ccc(N4CCN(C)CC4)cc3)nc3ccsc23)c1 , thanks.
(A) 1.02

(Q) How about Nc1cc(C(F)(F)F)c(-c2cc(N3CCOCC3)nc(N3CCOCC3)n2)cn1 ?
(A) 0.93

(Q) How about Cc1nc(NC(=O)N2CCC[C@H]2C(N)=O)sc1-c1ccnc(C(C)(C)C(F)(F)F)c1 ?
(A) 0.902

(Q) How about COCc1c(-c2cc3cc(C)cc(OC)c3s2)c2c(N)ncnn2c1CN1CCNC(=O)C1 ?
(A) 0.901

====

Exercise: state measured relative viability for each of the molecules provided.
Test system: SK-ES-1
Experiment: relative viability vs DMSO control (72 h) (fraction); higher = more viable cells
Conditions: 0.00152 µM
Respond numerically, and do not add a unit to the figure.

(Q) relative viability lookup needed for CNC(=O)c1ccc(-c2cnc3ncc(Cc4ccc5ncccc5c4)n3n2)cc1F , thanks.
(A) 1.11

(Q) How about Nc1cc(C(F)(F)F)c(-c2cc(N3CCOCC3)nc(N3CCOCC3)n2)cn1 ?
(A) 1.02

(Q) How about CO[C@H]1C[C@@H]2CC[C@@H](C)[C@@](O)(O2)C(=O)C(=O)N2CCCC[C@H]2C(=O)O[C@H]([C@H](C)C[C@@H]2CC[C@@H](OP(C)(C)=O)[C@H](OC)C2)CC(=O)[C@H](C)/C=C(\C)[C@@H](O)[C@@H](OC)C(=O)[C@H](C)C[C@H](C)/C=C/C=C/C=C/1C ?
(A) 0.978

(Q) How about Cc1cc(Nc2ncnc3ccc(NC4=NC(C)(C)CO4)cc23)ccc1Oc1ccn2ncnc2c1 ?
(A) 1.06

(Q) How about C[C@@H]1CCN(C(=O)CC#N)C[C@@H]1N(C)c1ncnc2[nH]ccc12 ?
(A) 1.01

(Q) How about Cn1cc(-c2cc3c(N4CCN(c5ncc([C@@](C)(N)c6ccc(F)cc6)cn5)CC4)ncnn3c2)cn1 ?
(A) 0.941

(Q) How about O=C(Nc1cnn2ccc(N3CCC[C@@H]3c3cc(F)ccc3F)nc12)N1CC[C@H](O)C1 ?
(A) 1.04

(Q) How about CC(C)N1CCN(Cc2cnc(-c3cc(-c4cccc5[nH]ccc45)cc4[nH]ncc34)o2)CC1 ?
(A) 0.945

(Q) How about CN1CCC(COc2cnc(-c3cccc(Cn4nc(-c5cccc(C#N)c5)ccc4=O)c3)nc2)CC1 ?
(A) 1.06

(Q) How about COc1cc2nccc(Oc3ccc(NC(=O)Nc4cc(C)on4)c(Cl)c3)c2cc1OC ?
(A) 1.03

(Q) How about CC(=O)Nc1cccc(-n2c(=O)n(C3CC3)c(=O)c3c(Nc4ccc(I)cc4F)n(C)c(=O)c(C)c32)c1 ?
(A) 0.987

(Q) How about C=CC(=O)N1CCC[C@@H](n2nc(-c3ccc(Oc4ccccc4)cc3)c3c(N)ncnc32)C1 ?
(A) 1.02

====

Exercise: state measured relative viability for each of the compounds provided.
System: SW872
Test: relative viability vs DMSO control (72 h) (fraction); higher = more viable cells
Conditions: 0.00017 µM
Respond numerically, and do not add a unit to the figure.

(Q) relative viability lookup needed for C[C@@H]1CCN(C(=O)CC#N)C[C@@H]1N(C)c1ncnc2[nH]ccc12 [Tofacitinib] , thanks.
(A) 1.12

(Q) How about COCc1c(-c2cc3cc(C)cc(OC)c3s2)c2c(N)ncnn2c1CN1CCNC(=O)C1 [Rogaratinib] ?
(A) 1.08

(Q) How about CC[C@H](Nc1ncnc2[nH]cnc12)c1nc2cccc(F)c2c(=O)n1-c1ccccc1 [Idelalisib] ?
(A) 1.09

(Q) How about CNC(=O)c1ccc(-c2cnc3ncc(Cc4ccc5ncccc5c4)n3n2)cc1F [Capmatinib] ?
(A) 1.04

(Q) How about CC1(C)CNc2cc(NC(=O)c3cccnc3NCc3ccncc3)ccc21 [Motesanib] ?
(A) 1

(Q) How about C[C@@H]1COCCN1c1cc(-c2ccnn2C)c2ccnc(-c3ccn[nH]3)c2n1 ?
(A) 0.994

(Q) How about CC(C)(C)c1cc(NC(=O)Nc2ccc(-c3cn4c(n3)sc3cc(OCCN5CCOCC5)ccc34)cc2)no1 [Quizartinib] ?
(A) 1.05

(Q) How about COc1cc2c(Oc3ccc4[nH]c(C)cc4c3F)ncnc2cc1OCCCN1CCCC1 [Cediranib] ?
(A) 1.04

====

Exercise: state measured relative viability for each of the compounds provided.
Tested on: SW982
Test: relative viability vs DMSO control (72 h) (fraction); higher = more viable cells
Details: 0.00017 µM
Structures can show the parent of a compound that is named as a salt.
Respond numerically, and do not add a unit to the figure.

(Q) relative viability lookup needed for COc1cccc2c1C(=O)c1c(O)c3c(c(O)c1C2=O)C[C@@](O)(C(=O)CO)C[C@@H]3O[C@H]1C[C@H](N)[C@H](O)[C@H](C)O1 [Doxorubicin Hydrochloride] , thanks.
(A) 1.05

(Q) How about CC(C)NC(=O)C1CCC(n2c(NC(=O)c3ccc(F)cc3)nc3ccc(CN4CCC(C(C)(C)O)CC4)cc32)CC1 (stereo not drawn) [Belizatinib] ?
(A) 1.09

(Q) How about CCN1CCN(Cc2ccc(Nc3ncc(F)c(-c4cc(F)c5nc(C)n(C(C)C)c5c4)n3)nc2)CC1 [Abemaciclib] ?
(A) 1.05

====

System: A204
Test: relative viability vs DMSO control (72 h) (fraction); higher = more viable cells
Settings: 0.00017 µM
attributeMeasured: relative viability
Respond numerically, and do not add a unit to the figure.

(Q) relative viability lookup needed for CCCS(=O)(=O)Nc1ccc(F)c(C(=O)c2c[nH]c3ncc(-c4ccc(Cl)cc4)cc23)c1F , thanks.
(A) 1.07

(Q) How about C[C@@H]1CCN(C(=O)CC#N)C[C@@H]1N(C)c1ncnc2[nH]ccc12 ?
(A) 1.09

(Q) How about COc1cc2/c(=N/c3ccc(Br)cc3F)nc[nH]c2cc1OCC1CCN(C)CC1 ?
(A) 1.04

(Q) How about CN1CCC(COc2cnc(-c3cccc(Cn4nc(-c5cccc(C#N)c5)ccc4=O)c3)nc2)CC1 ?
(A) 1.11

(Q) How about CCN1CCN(Cc2ccc(Nc3ncc(F)c(-c4cc(F)c5nc(C)n(C(C)C)c5c4)n3)nc2)CC1 ?
(A) 1.05

(Q) How about Cc1cnc(Nc2ccc(OCCN3CCCC3)cc2)nc1Nc1cccc(S(=O)(=O)NC(C)(C)C)c1 ?
(A) 1.07

(Q) How about CO[C@H]1C[C@@H]2CC[C@@H](C)[C@@](O)(O2)C(=O)C(=O)N2CCCC[C@H]2C(=O)O[C@H]([C@H](C)C[C@@H]2CC[C@@H](OP(C)(C)=O)[C@H](OC)C2)CC(=O)[C@H](C)/C=C(\C)[C@@H](O)[C@@H](OC)C(=O)[C@H](C)C[C@H](C)/C=C/C=C/C=C/1C ?
(A) 0.996

(Q) How about CNC(=O)c1ccc(-c2cnc3ncc(Cc4ccc5ncccc5c4)n3n2)cc1F ?
(A) 1.1

(Q) How about COc1cc2nccc(Oc3ccc(NC(=O)Nc4cc(C)on4)c(Cl)c3)c2cc1OC ?
(A) 1.1

====

Tested on: SW1353
Test: relative viability vs DMSO control (72 h) (fraction); higher = more viable cells
Conditions: 0.00152 µM
Where a name gives a salt, the structure may show the parent alone.
attributeMeasured: relative viability

(Q) relative viability lookup needed for CCc1cc2c(cc1N1CCC(N3CCOCC3)CC1)C(C)(C)c1[nH]c3cc(C#N)ccc3c1C2=O [Alectinib] , thanks.
(A) 1.01

(Q) How about COc1cccc2c1C(=O)c1c(O)c3c(c(O)c1C2=O)C[C@@](O)(C(=O)CO)C[C@@H]3O[C@H]1C[C@H](N)[C@H](O)[C@H](C)O1 [Doxorubicin Hydrochloride] ?
(A) 0.958

(Q) How about COc1c(OCCCN2CCOCC2)ccc2c1N=C(NC(=O)c1cnc(N)nc1)N1CCN=C21 [Copanlisib] ?
(A) 1.01

(Q) How about CN1CCN(c2ccc3nc(-c4c(N)c5c(F)cccc5[nH]c4=O)[nH]c3c2)CC1 [Dovitinib] ?
(A) 1.04

(Q) How about Nc1cc(C(F)(F)F)c(-c2cc(N3CCOCC3)nc(N3CCOCC3)n2)cn1 [Buparlisib] ?
(A) 0.971

(Q) How about O=C(Cc1ccc(-c2ccc(OCCN3CCOCC3)cc2)cn1)NCc1ccccc1 [KX2-391] ?
(A) 1.02

(Q) How about Cn1cc(-c2cc3c(N4CCN(c5ncc([C@@](C)(N)c6ccc(F)cc6)cn5)CC4)ncnn3c2)cn1 [Avapritinib] ?
(A) 0.894
